Data provenance is ChEMBL document CHEMBL2021762.

# Tested on: Yersinia pseudotuberculosis
# test_description: Inhibition of type 3 secretion in Yersinia pseudotuberculosis at 50 uM by reporter gene assay
Active and inactive are the calls of the source. The rule behind the calls is not given here.
measurement_name: inhibition

# molecule, endpoint_value
rows = [
    ("Oc1c(CN2CCCCC2)cc(Cl)c2cccnc12", "8%"),
    ("O=[N+]([O-])c1ccc(O)c(CN2CCN(c3ccccc3)CC2)c1", "inactive"),
    ("O=[N+]([O-])c1cc(CN2CCC(c3ccccc3)C2)c(O)c2ncccc12 (racemic)", "95%"),
    ("Oc1c(CN2CCN(c3ccc(F)cc3)CC2)cc(Br)c2cccnc12", "78%"),
    ("Oc1c(CN2CCN(c3ccccn3)CC2)cc(Cl)c2cccnc12", "80%"),
]

// moving on: another record for inhibition
With Yersinia pseudotuberculosis as the test system, CC1CN(Cc2cc([N+](=O)[O-])c3cccnc3c2O)CC(C)O1 (stereo unspecified) showed inhibition of 76%

---

# Tested on: Yersinia pseudotuberculosis
# test_description: Inhibition of type 3 secretion in Yersinia pseudotuberculosis at 50 uM by reporter gene assay
Activity calls are given as the source filed them. The rule behind the calls is not given here.
measurement_name: inhibition

# molecule, endpoint_value
data = [
    ("O=[N+]([O-])c1cc(CN2CCN(c3ccccc3)CC2)c(O)c2ncccc12", "94%"),
    ("COc1ccccc1N1CCN(Cc2cc([N+](=O)[O-])c3cccnc3c2O)CC1", "77%"),
    ("O=[N+]([O-])c1cc(CN2CCN(c3ccccc3)CC2)c(O)c2ccccc12", "inactive"),
    ("COc1c(CN2CCN(c3ccccc3)CC2)cc(Br)c2cccnc12", "inactive"),
]

Reported inhibition for CN1CCN(Cc2cc(Cl)c3cccnc3c2O)CC1 was inactive
